Tested on: Staphylococcus aureus-SMITH (GC 4543)
testProtocol: Acute lethal infection in mice (ED50)
Format: in vivo
reportedConditions: female CD-1 mice, intraperitoneal challenge, intravenous dose 30 min. after infection, 7 day survival ratios
Each entry below carries its recorded median effective dose (ED50), Staphylococcus aureus-SMITH (GC 4543).
measure: median effective dose (ED50), Staphylococcus aureus-SMITH (GC 4543)

# molecule, result
data = [
    ("CN=C1N(C)CC(CC2NC(=O)C(Cc3ccc(OC4OC(CO)C(OC5OC(CO)C(O)C(O)C5O)C(O)C4O)cc3)NC(=O)C(C(C)c3ccccc3)NC(=O)CNC(=O)C(CO)NC(=O)C(CC3CN(C)C(=NC)N3C3OC(CO)C(O)C(O)C3O)NC2=O)N1C (stereo not drawn)", ">8"),
    ("CC(c1ccccc1)C1NC(=O)CNC(=O)C(CO)NC(=O)C(C(O)C2CNC(=N)N2C2OC(CO)C(O)C(O)C2O)NC(=O)C(C(O)C2CNC(=N)N2)NC(=O)C(Cc2ccc(OC3OC(CO)C(OC4OC5COC(c6ccccc6)OC5C(O)C4O)C(O)C3O)cc2)NC1=O (stereo not drawn)", "0.19 mg/kg"),
    ("CC(c1ccccc1)C1NC(=O)CNC(=O)C(CO)NC(=O)C(C(O)C2CN(Cc3ccc4ccccc4c3)C(=N)N2C2OC(CO)C(O)C(O)C2O)NC(=O)C(C(O)C2CNC(=N)N2)NC(=O)C(Cc2ccc(OC3OC(CO)C(OC4OC5COC6(OC5C(O)C4O)C4CC5CC(C4)CC6C5)C(O)C3O)cc2)NC1=O (stereo not drawn)", "2 mg/kg"),
]

Hey, just so you know, these numbers are from patent US8247211B2.
